Quick reference for melting point among some molecules
Parameter measured: melting point

# Smiles string, Obs value
records = [
    ("C=C1C(=O)[C@@]23C(=O)O[C@H]4CCC(C)(C)[C@H]5[C@H](O)OC[C@@]45[C@@H]2CC[C@@H]1[C@H]3OC(=O)c1ccccc1C(=O)OCCCCOc1no[n+]([O-])c1S(=O)(=O)c1ccccc1", "126 to 128 °C"),
    ("C=C1C(=O)[C@@]23C(=O)O[C@H]4CCC(C)(C)[C@H]5[C@H](O)OC[C@@]45[C@@H]2CC[C@@H]1[C@H]3OC(=O)CCC(=O)OCCCOc1no[n+]([O-])c1S(=O)(=O)c1ccccc1", "110 to 112 °C"),
    ("C=C1C(=O)[C@@]23C(=O)O[C@H]4CCC(C)(C)[C@H]5[C@H](O)OC[C@@]45[C@@H]2CC[C@@H]1[C@H]3OC(=O)CCCC(=O)OCCCOc1no[n+]([O-])c1S(=O)(=O)c1ccccc1", "82 to 84 °C"),
    ("C=C1C(=O)[C@@]23C(=O)O[C@H]4CCC(C)(C)[C@H]5[C@H](O)OC[C@@]45[C@@H]2CC[C@@H]1[C@H]3OC(=O)CCC(=O)OCCOc1no[n+]([O-])c1S(=O)(=O)c1ccccc1", "92 to 94 °C"),
    ("C=C1C(=O)[C@@]23C(=O)O[C@H]4CCC(C)(C)[C@H]5[C@H](O)OC[C@@]45[C@@H]2CC[C@@H]1[C@H]3OC(=O)c1ccccc1C(=O)OCCCOc1no[n+]([O-])c1S(=O)(=O)c1ccccc1", "128 to 130 °C"),
    ("C=C1C(=O)[C@@]23C(=O)O[C@H]4CCC(C)(C)[C@H]5[C@H](O)OC[C@@]45[C@@H]2CC[C@@H]1[C@H]3OC(=O)c1ccccc1C(=O)OCCOc1no[n+]([O-])c1S(=O)(=O)c1ccccc1", "137 to 139 °C"),
    ("C=C1C(=O)[C@@]23C(=O)O[C@H]4CCC(C)(C)[C@H]5[C@H](O)OC[C@@]45[C@@H]2CC[C@@H]1[C@H]3OC(=O)CCC(=O)OCCCCOc1no[n+]([O-])c1S(=O)(=O)c1ccccc1", "85 to 87 °C"),
    ("C=C1C(=O)[C@@]23C(=O)O[C@H]4CCC(C)(C)[C@H]5[C@H](O)OC[C@@]45[C@@H]2CC[C@@H]1[C@H]3OC(=O)CCCC(=O)OCCCCOc1no[n+]([O-])c1S(=O)(=O)c1ccccc1", "78 to 80 °C"),
    ("C=C1C(=O)[C@@]23C(=O)O[C@H]4CCC(C)(C)[C@H]5[C@H](O)OC[C@@]45[C@@H]2CC[C@@H]1[C@H]3OC(=O)CCCC(=O)OCCOc1no[n+]([O-])c1S(=O)(=O)c1ccccc1", "88 to 89 °C"),
]
